- Experiment: Single dose clinical study: plasma Compound A pharmacokinetics
- Assay type: in vivo, human
- Measurement Conditions: human, plasma, oral, single doses of 10 to 1200 mg; read-out: median plasma tmax across all doses
Parameter Measured: Tmax

-- ask Determine from records and report Tmax for COc1ncc(C)c(-c2ccc3c(c2)[nH]c(=O)c2cnn([C@H]4CCOC4)c23)c1C
-- reply 2 to 4 h

----------
- Experiment: Single dose clinical study: plasma Compound A pharmacokinetics
- Assay type: in vivo, human
- Measurement Conditions: human, plasma, oral, 100 mg; read-out: mean terminal half-life longer in elderly than in younger healthy adult subjects (converted)
Parameter Measured: half-life

-- ask Identify the reported half-life for the following entry. COc1ncc(C)c(-c2ccc3c(c2)[nH]c(=O)c2cnn([C@H]4CCOC4)c23)c1C
-- reply ~10 h

----------
- Experiment: Single dose clinical study Part B: CSF Compound A pharmacokinetics
- Assay type: in vivo
- Measurement Conditions: human; CSF, healthy adults Part B, single oral 400 mg, fasted; read-out: CSF tmax Median
Parameter Measured: Tmax
Mention the unit after the number when you answer.

-- ask Dear colleague, please send me the reported Tmax for COc1ncc(C)c(-c2ccc3c(c2)[nH]c(=O)c2cnn([C@H]4CCOC4)c23)c1C when you can.
-- reply 5.37 h

----------
- Experiment: Single dose clinical study: plasma Compound A pharmacokinetics
- Format: in vivo, human
- Measurement Conditions: human, plasma, oral, 100 mg, Fed, 100 mg, Part B; read-out: AUC(0-t) Geometric LS Means Test
Parameter Measured: AUC(0-t) (µg·h/mL)
Write the number in µg·h/mL without appending the unit.

-- ask Please give the documented AUC(0-t) of COc1ncc(C)c(-c2ccc3c(c2)[nH]c(=O)c2cnn([C@H]4CCOC4)c23)c1C
-- reply 17.1

----------
- Experiment: Single dose clinical study Part B: CSF Compound A pharmacokinetics
- Type: in vivo
- Measurement Conditions: human; CSF, healthy adults Part B, single oral 75 mg, fasted; read-out: CSF tmax Median
Parameter Measured: Tmax (h)
Report the value in h with no unit label.

-- ask Tell me its Tmax given COc1ncc(C)c(-c2ccc3c(c2)[nH]c(=O)c2cnn([C@H]4CCOC4)c23)c1C as the entry.
-- reply 5.37

----------
- Experiment: Single dose clinical study: plasma Compound A pharmacokinetics
- Type: in vivo, human
- Measurement Conditions: human, plasma, po, 25 mg, plasma, Non-Japanese Subjects (Parts A,B), single oral 25 mg; read-out: Cmax GM (% CV)
Parameter Measured: Cmax (ng/mL)
Field format: number, assumed ng/mL, no unit text.

-- ask Give me measured Cmax, please, for this compound: COc1ncc(C)c(-c2ccc3c(c2)[nH]c(=O)c2cnn([C@H]4CCOC4)c23)c1C [Compound A]
-- reply 152

----------
- Experiment: Single dose clinical study: plasma Compound A pharmacokinetics
- Assay type: in vivo, human
- Measurement Conditions: human, plasma, po, 100 mg, plasma, healthy adults (Parts A,B), single oral 100 mg, fasted; read-out: t1/2 Mean (converted)
Parameter Measured: half-life (h)
The answer is to be given in h; state only the numeric part.

-- ask Provide half-life value for the following compound: COc1ncc(C)c(-c2ccc3c(c2)[nH]c(=O)c2cnn([C@H]4CCOC4)c23)c1C
-- reply 28.6

----------
- Experiment: Single dose clinical study: plasma Compound A pharmacokinetics
- Format: in vivo, human
- Measurement Conditions: human, plasma, po, 100 mg, plasma, Non-Japanese Subjects (Parts A,B), single oral 100 mg; read-out: AUC(0-inf) GM
Parameter Measured: AUC(0-inf)
Output should be the measured figure followed by the unit it is expressed in.

-- ask Supply reported AUC(0-inf) belonging to this molecule: COc1ncc(C)c(-c2ccc3c(c2)[nH]c(=O)c2cnn([C@H]4CCOC4)c23)c1C
-- reply 15000 ng·h/mL
